system: MRC5; test: Cytotoxicity against human MRC5 cells assessed as reduction in cell viability incubated for 72 hrs by MTT assay; details: MRC5, 72 h
PARAMETER MEASURED: IC50 (µM)

1. N#Cc1c2n(c3c(=O)n(-c4ccc(F)cc4)cnc13)CCC2
11.2
2. COc1ccc(-n2c(C)nc3c(C#N)c4n(c3c2=O)CCC4)cc1
17.3
3. COc1ccc(-n2cnc3c(C#N)c4n(c3c2=O)CCC4)cc1
20.6
4. Cc1nc2c(C#N)c3n(c2c(=O)n1-c1ccc(Cl)cc1)CCCC3
1.54
5. N#Cc1c2n(c3c(=O)n(-c4ccccc4)cnc13)CCCC2
1.45
6. N#Cc1c2n(c3c(=O)n(-c4ccc(F)cc4)c(=O)[nH]c13)CCC2
0.24
7. COc1ccc(N2CC(=O)Nc3c(C#N)c4n(c3C2=O)CCC4)cc1
9.57
8. N#Cc1c2c(n3c1CCC3)C(=O)N(c1ccc(F)cc1)CC(=O)N2
1.46
9. COc1ccc(-n2c(=O)[nH]c3c(C#N)c4n(c3c2=O)CCC4)cc1
13.8
10. O=C(Nc1ccc(F)cc1)c1c2nc[nH]c(=O)c2c2n1CCC2
0.17
11. COc1ccc(NC(=O)c2c3nc[nH]c(=O)c3c3n2CCC3)cc1
1.53
12. N#Cc1c2n(c3c(=O)n(-c4ccc(Cl)cc4)cnc13)CCCC2
0.3
13. Cc1nc2c(C#N)c3n(c2c(=O)n1-c1ccccc1)CCCC3
7.58
14. N#Cc1c2n(c3c(=O)n(-c4ccc(Br)cc4)cnc13)CCCC2
15.8
15. Cc1nc2c(C#N)c3n(c2c(=O)n1-c1ccc(Br)cc1)CCCC3
3.71
16. Cc1nc2c(C#N)c3n(c2c(=O)n1-c1ccc(F)cc1)CCC3
2.78
